The measurements presented in this section are drawn from paper PMC12040169.

experiment: in vitro; conditions: human, hela cells, % viability
Catalogue of viability at 28.5 h, 10 µM readings, one per entry.

| molecule | measurement.units | viability at 28.5 h, 10 µM |
| --- | --- | --- |
| Cc1cccc(C(=O)NNC(=O)COc2cccc3ccccc23)c1O [CBK262993] | % | 87.7 |
| Fc1ccc(Br)cc1SCCc1ccccn1 [CBK262330G] | % | 86.7 |
| COc1ccc(CNC(=O)N(C)C2CCN(C)C2)cc1OC (centres unmarked) [CBK156020] | % | 97.6 |
| NS(=O)(=O)c1ccc2c(c1)N(Cc1nc(-c3ccco3)no1)CC2 [CBK304291] | % | 71.9 |
| O=C1COc2ccccc2C/C=C/CC2(CCN(C(=O)c3n[nH]c4ccccc34)CC2)CN1 [CBK292021] | % | 88.9 |
